Record form. Attribute: inhibition at 1 µM. Fill in for each entry.
# targetOrSystem: panel of 255 wild-type kinases (Homo sapiens)
# Sequence (O60285 whole entry): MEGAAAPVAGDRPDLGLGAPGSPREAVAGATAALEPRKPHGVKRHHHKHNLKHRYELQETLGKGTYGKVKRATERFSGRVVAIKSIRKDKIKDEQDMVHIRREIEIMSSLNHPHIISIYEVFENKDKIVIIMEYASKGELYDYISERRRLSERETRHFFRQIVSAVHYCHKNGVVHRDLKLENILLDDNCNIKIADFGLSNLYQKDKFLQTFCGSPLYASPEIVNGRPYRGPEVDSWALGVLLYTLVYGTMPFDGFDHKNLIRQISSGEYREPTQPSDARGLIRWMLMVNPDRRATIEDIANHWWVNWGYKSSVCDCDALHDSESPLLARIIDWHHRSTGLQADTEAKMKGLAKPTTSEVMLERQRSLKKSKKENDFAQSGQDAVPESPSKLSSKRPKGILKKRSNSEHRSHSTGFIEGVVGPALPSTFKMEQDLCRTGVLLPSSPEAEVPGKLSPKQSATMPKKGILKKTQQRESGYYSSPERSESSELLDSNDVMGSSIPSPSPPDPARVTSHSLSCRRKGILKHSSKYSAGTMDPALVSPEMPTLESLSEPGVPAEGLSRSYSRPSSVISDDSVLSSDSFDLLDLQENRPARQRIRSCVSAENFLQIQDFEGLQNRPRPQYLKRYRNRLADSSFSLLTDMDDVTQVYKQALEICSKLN
# experimentNotes: Kinase panel profiling at 1 µmol/L (MSA or IMAP), percentage inhibition
# Type: biochemical
# condition: NuaK1; 1 µmol/L single concentration; read-out: %-inhibition, NuaK1
Give bare numbers, in %.

Okay, here is my list. What is inhibition at 1 µM for each of these?
1. CCn1c(=O)c(-c2cc(NC(=O)Nc3ccccc3)c(F)cc2Br)cc2cnc(NC)cc21
2. CCN1CCN(c2ccc(Nc3cc(N(C)C(=O)Nc4c(Cl)c(OC)cc(OC)c4Cl)ncn3)cc2)CC1
3. Cn1cnc2c(F)c(Nc3ccc(Br)cc3F)c(C(=O)NOCCO)cc21
4. COC(=O)N[C@@H](C)CNc1nccc(-c2cn(C(C)C)nc2-c2cc(Cl)cc(NS(C)(=O)=O)c2F)n1
5. Cc1cc(Nc2ncnc3ccc(NC4=NC(C)(C)CO4)cc23)ccc1Oc1ccn2ncnc2c1
6. C[C@H]1Oc2cc(cnc2N)-c2c(nn(C)c2C#N)CN(C)C(=O)c2ccc(F)cc21
7. Cc1nc(NC(=O)N2CCC[C@H]2C(N)=O)sc1-c1ccnc(C(C)(C)C(F)(F)F)c1
8. FC(F)(F)c1ccc(CNc2ccc(Cc3c[nH]c4ncc(Cl)cc34)cn2)cn1

[4.32, 8, -4.32, -0.237, 9, 26, 9, 8]
